Source of measurements: PubChem BioAssay (NCI)

# Experiment description: NCI Yeast Anticancer Drug Screen. Data for the bub3 strain (AID 167)
# Condition details: S. cerevisiae bub3 mutant strain, at 5.0 µM (retest, dose inferred, filed as 0.5), stronger effect = higher value
# Method: Growth inhibition of yeast strains with defined genetic alterations is measured as a screen for potential anti-cancer activity. Selected strains with alterations in DNA damage repair or cell cycle control were exposed to compounds and growth inhibition was measured relative to vehicle treated controls. The strain used in this assay is bub3
The panel holds about 79,000 compounds, 15% with a hit somewhere; the sample as a whole holds those more often.
Task for the reader: assign each of the following compounds its reported growth inhibition.
Report only the number, with the unit % understood.

Please supply the value of reported growth inhibition for the item "CC(C)(C)N/N=C(/Cc1nc2c3c(ccc2[nH]c1=O)C(=O)c1ccccc1C3=O)C(=O)NC1=C(Cl)C(=O)c2ccccc2C1=O"
13

Please supply the value of reported growth inhibition for the item "COC(=O)c1nc(=S)[nH]c(C(=O)OC)c1C(=O)c1ccc(Cl)c(Cl)c1"
0

Please supply the value of reported growth inhibition for the item "CCOS(=O)(=O)CC(C)(C)C"
4

Please supply the value of reported growth inhibition for the item CC(O)C(O)C(O)C(O)C(O)C(=O)NNc1ccccc1 (stereo not drawn)
29

Please supply the value of reported growth inhibition for the item "O=C(OC12CC3CC(CC(C3)C1)C2)c1ccc(NCc2cc(O)ccc2O)cc1"
28

Please supply the value of reported growth inhibition for the item "C[C@@H]1CCC([C@@H](C)[C@H]2CC[C@H]3[C@@H]4CC[C@H]5C[C@@H](O)CC[C@]5(C)[C@H]4CC[C@]23C)=NC1"
84

Please supply the value of reported growth inhibition for the item "O=C(Cc1nc2cc(Cl)c(Cl)cc2nc1CC(=O)c1ccccc1)c1ccccc1"
-4

Please supply the value of reported growth inhibition for the item "O=C(O)/C=C\C(=O)NNc1ccccc1"
14

Please supply the value of reported growth inhibition for the item CC1(c2ccc(O)cc2)CCC(C(C)(C)c2ccc(O)cc2)CC1 (stereo not drawn)
89

Please supply the value of reported growth inhibition for the item "Cn1c(-c2ccccc2)c(/C=C/C2=[N+](C)c3ccccc3C2(C)C)c2ccccc21"
93

Please supply the value of reported growth inhibition for the item CC12CCC(O)CC1=CCC1C2CCC2(C)C3=NN=CC3CC12 (stereo not drawn)
31

Please supply the value of reported growth inhibition for the item C=C1C(=O)OC2CC1C(OC(=O)/C=C/c1ccccc1)C/C(C)=C/CC/C(C)=C/CCC2(C)O (stereo not drawn)
88

Please supply the value of reported growth inhibition for the item CC1=CC(=O)C=CC1(C)C(Cl)(Cl)Cl (stereo not drawn)
-6

Please supply the value of reported growth inhibition for the item "CC(C)c1ccc(Nc2n[nH]c(=S)s2)cc1"
33

Please supply the value of reported growth inhibition for the item CCCCCCCCCCCC(=O)OC(C)C(=O)NCCCC (stereo not drawn)
-1

Please supply the value of reported growth inhibition for the item "C(CCc1nn[nH]n1)CCC1CCCCC1"
11

Please supply the value of reported growth inhibition for the item "CCCCN(CCCC)CCCCCCCCCCO"
3

Please supply the value of reported growth inhibition for the item "Oc1ccc(Nc2ccc3ccccc3c2)cc1"
-5

Please supply the value of reported growth inhibition for the item "NCCN1C(=O)CNC1=S"
-1

Please supply the value of reported growth inhibition for the item CCC[CH2][Sn]1([CH2]CCC)[O]C2C(CO)OC(n3ccc(N)nc3=O)C2[O]1 (stereo not drawn)
89

Please supply the value of reported growth inhibition for the item "CCOC(=O)NC(/C=C/c1ccccc1)NC(=O)OCC"
2

Please supply the value of reported growth inhibition for the item "CC1=CC(=NC(=O)CBr)C=C/C1=N\S(=O)(=O)c1ccccc1"
46

Please supply the value of reported growth inhibition for the item "COc1ccc(/C(C#N)=C/c2cccc(N)c2)cc1"
13
